- SYSTEM: human β3 -adrenergic receptor (Homo sapiens, UniProt P13945)
- Construct: expressed in transfected cells; host or cells: CHO-K1 (ATCC CCL 61), clone CHO/pKREX10-36
- Sequence (P13945 whole entry): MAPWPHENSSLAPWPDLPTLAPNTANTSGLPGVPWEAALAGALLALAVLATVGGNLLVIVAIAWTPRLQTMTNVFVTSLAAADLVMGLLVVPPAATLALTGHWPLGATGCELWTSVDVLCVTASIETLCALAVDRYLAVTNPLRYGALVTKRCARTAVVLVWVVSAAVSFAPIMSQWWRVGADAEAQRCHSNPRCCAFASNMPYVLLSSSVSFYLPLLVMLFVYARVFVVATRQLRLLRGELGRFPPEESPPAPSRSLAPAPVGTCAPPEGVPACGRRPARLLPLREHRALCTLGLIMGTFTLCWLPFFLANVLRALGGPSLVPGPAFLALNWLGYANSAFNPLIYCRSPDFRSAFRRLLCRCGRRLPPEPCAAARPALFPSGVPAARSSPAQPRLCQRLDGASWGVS
- PROCEDURE DETAILS: Human β3-adrenergic receptor-stimulating activity (cAMP accumulation in CHO/pKREX10-36 cells)
- Format: cell-based
- RUN CONDITIONS: read-out: I.A. value β3 -receptor
REPORTED PROPERTY: Emax (%)
# output: bare number, implied unit %

Before answering, review these 5 worked examples.
# COMPOUND, Emax / %
records = [
    ("COC(=O)c1ccc2c(CC(C)NCC(O)c3cccc(Cl)c3)c[nH]c2c1 (stereo not drawn)", 92),
    ("COc1cccc2c(CC(C)NC[C@H](O)c3cccc(Cl)c3)c[nH]c12 (stereo partly drawn) [Example 1-A]", 114),
    ("CC(Cc1c[nH]c2c(OCc3ccccc3)cccc12)NCC(O)c1cccc(Cl)c1 (stereo not drawn)", 116),
    ("COc1ccc2c(CC(C)NCC(O)c3cccc(Cl)c3)c[nH]c2c1 (stereo not drawn)", 102),
    ("COc1cccc2c(CC(C)NCC(O)c3cccc(Cl)c3)c[nH]c12 (stereo not drawn)", 113),
]

Challenge: Can you look up the measured Emax of Cc1ccc2c(CC(C)NCC(O)c3cccc(Cl)c3)c[nH]c2c1 (stereo not drawn) for me?
Response given: 95

Challenge: Can you look up the measured Emax of OC(CNCCc1c[nH]c2ccc(Cl)cc12)c1ccccc1 (stereo not drawn) [Compound A, reference compound] for me?
Response given: 92

Challenge: Can you look up the measured Emax of Cc1cccc2c(CC(C)NCC(O)c3cccc(Cl)c3)c[nH]c12 (stereo not drawn) for me?
Response given: 91

Challenge: Can you look up the measured Emax of O=[N+]([O-])c1cccc(C(O)CNCCc2c[nH]c3ccccc23)c1 (stereo not drawn) [Compound C, reference compound] for me?
Response given: 105
